- Assay Target: Integrin alpha-V/beta-6 (Homo sapiens, UniProt P06756+P18564)
- Sequence (P06756 31-889 limits assumed): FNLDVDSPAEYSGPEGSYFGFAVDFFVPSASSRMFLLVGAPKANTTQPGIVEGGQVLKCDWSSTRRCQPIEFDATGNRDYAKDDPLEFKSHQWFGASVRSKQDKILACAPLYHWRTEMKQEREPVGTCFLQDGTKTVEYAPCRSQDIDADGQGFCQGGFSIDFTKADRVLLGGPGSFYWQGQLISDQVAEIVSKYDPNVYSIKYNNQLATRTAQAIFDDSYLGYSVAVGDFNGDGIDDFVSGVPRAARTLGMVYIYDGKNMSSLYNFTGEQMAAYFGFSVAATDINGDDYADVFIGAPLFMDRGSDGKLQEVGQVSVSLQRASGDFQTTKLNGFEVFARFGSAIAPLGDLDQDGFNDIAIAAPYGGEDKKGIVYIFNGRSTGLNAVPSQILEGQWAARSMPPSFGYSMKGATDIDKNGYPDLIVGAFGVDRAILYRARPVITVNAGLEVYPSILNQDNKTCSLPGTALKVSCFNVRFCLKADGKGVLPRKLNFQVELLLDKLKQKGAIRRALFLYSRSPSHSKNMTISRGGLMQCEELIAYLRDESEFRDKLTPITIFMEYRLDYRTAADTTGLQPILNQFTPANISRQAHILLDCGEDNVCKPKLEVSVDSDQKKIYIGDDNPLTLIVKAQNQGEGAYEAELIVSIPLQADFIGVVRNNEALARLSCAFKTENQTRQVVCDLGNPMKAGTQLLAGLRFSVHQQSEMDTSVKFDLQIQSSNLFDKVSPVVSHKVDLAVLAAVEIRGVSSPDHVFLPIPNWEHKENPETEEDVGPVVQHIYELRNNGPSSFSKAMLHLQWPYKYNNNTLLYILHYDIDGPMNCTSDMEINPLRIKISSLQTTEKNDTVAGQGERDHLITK
- Sequence (P06756 891-1048 limits assumed): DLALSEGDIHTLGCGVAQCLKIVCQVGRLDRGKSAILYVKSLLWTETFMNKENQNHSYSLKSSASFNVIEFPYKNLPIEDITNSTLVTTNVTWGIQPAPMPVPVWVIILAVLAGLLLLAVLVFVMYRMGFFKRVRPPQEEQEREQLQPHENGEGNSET
- Sequence (P18564 22-788 limits assumed): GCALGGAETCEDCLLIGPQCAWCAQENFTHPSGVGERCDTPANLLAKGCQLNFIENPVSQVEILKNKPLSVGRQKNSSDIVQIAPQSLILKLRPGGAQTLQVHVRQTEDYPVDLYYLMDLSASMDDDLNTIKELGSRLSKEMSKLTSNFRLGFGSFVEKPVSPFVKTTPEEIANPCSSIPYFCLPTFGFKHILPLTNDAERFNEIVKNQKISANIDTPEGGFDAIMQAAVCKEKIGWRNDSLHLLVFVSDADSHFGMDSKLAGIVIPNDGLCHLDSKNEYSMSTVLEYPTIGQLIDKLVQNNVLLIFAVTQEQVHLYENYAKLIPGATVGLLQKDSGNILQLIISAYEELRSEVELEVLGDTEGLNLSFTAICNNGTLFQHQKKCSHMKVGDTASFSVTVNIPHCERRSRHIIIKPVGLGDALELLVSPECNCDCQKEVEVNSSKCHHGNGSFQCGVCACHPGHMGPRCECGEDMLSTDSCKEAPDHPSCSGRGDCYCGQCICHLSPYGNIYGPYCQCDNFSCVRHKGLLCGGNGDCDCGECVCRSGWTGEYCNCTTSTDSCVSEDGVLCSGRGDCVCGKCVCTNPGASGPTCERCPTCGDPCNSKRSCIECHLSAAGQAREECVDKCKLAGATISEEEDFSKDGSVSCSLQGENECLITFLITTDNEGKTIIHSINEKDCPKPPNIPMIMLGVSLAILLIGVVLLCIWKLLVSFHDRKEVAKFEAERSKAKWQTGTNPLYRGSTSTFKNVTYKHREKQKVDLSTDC
- Assay Remarks: Inhibition of alpha-V-beta-6 integrin receptor in human HT29 cells
- Format: cell-based, HT-29
pIC50: −log10 of the molar value.
Readout Label: pIC50

Take a look at these entries with their results.
In [3]: df
Out[3]:
                                   molecule  readout_label   val
0  O=C(O)C[C@@H](NC(=O)CNC(=O)c1cccc(NC2=NCCCN2)c1)c1cc(Cl)cc(I)c1O          pIC50  5.00
1  O=C(O)C[C@@H](NC(=O)CNC(=O)c1cc(O)cc(NC2=NCC(O)CN2)c1)c1cc(Cl)cc(I)c1O (some centres not stated)          pIC50  6.20
2  O=C(O)C[C@@H](NC(=O)CNC(=O)c1cccc(NC2=NCC(O)CN2)c1)c1cc(Br)cc(Br)c1O (some centres not stated)          pIC50  7.60

(P) O=C(O)C[C@@H](NC(=O)CNC(=O)c1cc(O)cc(NC2=NCC(O)CN2)c1)c1cc(Br)cc(Br)c1O (some centres not stated)
(Q) O=C(O)C[C@@H](NC(=O)CNC(=O)c1cc(O)cc(NC2=NCC(F)CN2)c1)c1cc(Cl)cc(Cl)c1O (some centres not stated)
(R) Nc1cc(NC2=NCC(O)CN2)cc(C(=O)NCC(=O)N[C@H](CC(=O)O)c2cc(Cl)cc(I)c2O)c1 (some centres not stated)
hey, can you rank those molecules up there by pIC50? biggest number first please Would you mind listing the labels in the order requested?
Q, P, R
(Q: 7.38, P: 7.02, R: 4.91)

(A) O=C(O)C[C@@H](NC(=O)CNC(=O)c1cncc(NC2=NCC(O)CN2)c1)c1cc(Br)cc(Cl)c1O (some centres not stated)
(B) Cc1cc(Cl)cc([C@@H](CC(=O)O)NC(=O)CNC(=O)c2cc(O)cc(NC3=NCC(O)CN3)c2)c1O (some centres not stated)
(C) Nc1cc(NC2=NCC(F)CN2)cc(C(=O)NCC(=O)N[C@H](CC(=O)O)c2cc(Cl)cc(Br)c2O)c1 (some centres not stated)
hey, can you rank those molecules up there by pIC50? biggest number first please Would you mind listing the labels in the order requested?
B, C, A

---

- Assay Target: Integrin alpha-V/beta-3 (Homo sapiens, UniProt P05106+P06756)
- Sequence (P05106 27-788 limits assumed, one chain of several): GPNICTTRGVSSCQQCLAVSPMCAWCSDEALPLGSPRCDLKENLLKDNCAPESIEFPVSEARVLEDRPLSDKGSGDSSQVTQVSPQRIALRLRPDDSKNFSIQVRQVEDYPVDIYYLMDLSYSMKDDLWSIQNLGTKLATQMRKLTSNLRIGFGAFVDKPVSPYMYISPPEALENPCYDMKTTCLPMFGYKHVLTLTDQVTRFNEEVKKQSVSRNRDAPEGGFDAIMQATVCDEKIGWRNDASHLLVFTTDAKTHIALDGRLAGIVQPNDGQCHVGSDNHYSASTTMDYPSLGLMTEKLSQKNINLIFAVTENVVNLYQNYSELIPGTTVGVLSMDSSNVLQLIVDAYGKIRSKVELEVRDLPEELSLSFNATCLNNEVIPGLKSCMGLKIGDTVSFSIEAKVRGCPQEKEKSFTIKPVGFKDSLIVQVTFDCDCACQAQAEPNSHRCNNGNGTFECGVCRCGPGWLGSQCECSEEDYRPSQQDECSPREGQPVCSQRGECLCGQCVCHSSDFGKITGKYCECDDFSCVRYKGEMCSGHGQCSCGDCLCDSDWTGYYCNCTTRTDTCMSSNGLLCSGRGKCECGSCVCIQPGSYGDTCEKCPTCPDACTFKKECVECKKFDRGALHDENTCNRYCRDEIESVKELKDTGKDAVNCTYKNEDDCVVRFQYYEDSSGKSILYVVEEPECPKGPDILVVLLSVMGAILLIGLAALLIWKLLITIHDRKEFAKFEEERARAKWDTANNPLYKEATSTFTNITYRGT
- Assay Remarks: Inhibition of alphaVbeta3 integrin receptor expressed in human 293 cells
Readout Label: IC50 (nM)

In [3]: df
Out[3]:
                                   compound  val
0  O=C(O)C[C@@H](NC(=O)CNC(=O)c1cc(O)cc(NC2=NCC(F)CN2)c1)c1cc(Br)cc(Br)c1O (stereo partly drawn)    3

(1) O=C(O)C[C@@H](NC(=O)CNC(=O)c1cncc(NC2=NCC(O)CN2)c1)c1cc(Cl)cc(Br)c1O (stereo partly drawn)
(2) O=C(O)C[C@@H](NC(=O)CNC(=O)c1cccc(NC2=NCC(O)CN2)c1)c1cc(Br)cc(Br)c1O (stereo partly drawn)
Select one. Lower IC50: 1 or 2 # respond with the chosen item's label
1

---

- Assay Target: Integrin alpha-V/beta-6 (Homo sapiens, UniProt P06756+P18564)
- Assay Remarks: Inhibition of alpha-V-beta-6 integrin receptor in human HT29 cells
- Assay type: cell-based, HT-29
pIC50: −log10 of the molar value.
Readout Label: pIC50

>>> print(df.to_string())
                                   compound                              assay_target  readout_label   val
0  Nc1cc(NC2=NCC(O)CN2)cc(C(=O)NCC(=O)N[C@H](CC(=O)O)c2cc(Br)cc(Br)c2O)c1 (stereo partly drawn)  Integrin alpha-V/beta-6 (Homo sapiens, UniProt P06756+P18564)          pIC50  5.55

(A) O=C(O)C[C@@H](NC(=O)CNC(=O)c1cccc(NC2=NCC(O)CN2)c1)c1cc(Cl)cc(Br)c1O (stereo partly drawn)
(B) O=C(O)C[C@@H](NC(=O)CNC(=O)c1cc(O)cc(NC2=NCC(F)CN2)c1)c1cc(Cl)cc(Br)c1 (stereo partly drawn)
Select one. Lower pIC50: A or B # respond with the chosen item's label
A
(A: 5.45, B: 7.24)

Sourced from ChEMBL document CHEMBL1147945
